# Read-out: Matrix Metallopeptidase 1 (MMP1), MMP1 (gene 4312)
# protocol text: BSK_hDFCGF_MMP1: BioMAP Diversity Plus: hDFCGF Assay for Matrix Metallopeptidase 1 (MMP1) Biomarker Activity (AID 2283064)
# condition description: primary human foreskin fibroblasts; actives raise or lower the signal
# Description: BSK_hDFCGF is a cell-based, multiplexed-readout assay that uses foreskin fibroblast, a human skin primary cell, with measurements taken at 24 hours after chemical dosing in a 96-well plate.BSK_hDFCGF_MMP1 is an assay component measured in the BSK_hDFCGF assay. It measures MMP-1 antibody related to regulation of gene expression using ELISA technology.Data from the assay component BSK_hDFCGF_MMP1 was analyzed into 1 assay endpoint. […]
Activity calls are given as the source filed them. Rule for the calls: active = hit-call score of the fitted dose curve at least 0.9, where 1 is the maximum; inactive = score below 0.9.
Outcome field: choose from class 1 for active, class 0 for inactive

Request: How was CCCCC/C=C/C=C/C=O classified in this test?
Response: class 1

Request: // outcome(item) with item = COC(=O)c1ccc(C)cc1
Response: class 0

Request: Outcome logged for CN(CCOc1ccc(CC2SC(=O)NC2=O)cc1)c1ccccn1 (centres undefined) in this assay:
Response: class 0

Request: Could you check what this test reported for CCCCCCCCC=O ?
Response: class 0

Request: Could you kindly confirm the outcome this assay logged for CC(=O)/C=C/C1=C(C)CCCC1(C)C ?
Response: class 0

Request: In this assay, the call recorded for CC(C)c1ccc(C(C)C)cc1 was what?
Response: class 0

Request: Record lookup: outcome of this test for OC1OC[C@@H](O)[C@H](O)[C@H]1O (some centres undefined) ?
Response: class 0

Request: Answer briefly: the call reported for Nc1cc([N+](=O)[O-])ccc1O in this assay.
Response: class 0

Request: Give the logged outcome of this assay for the following compound: O=C(O)c1cn(-c2ccc(F)cc2)c2cc(N3CCNCC3)c(F)cc2c1=O
Response: class 0

Request: What call does the record list for O=[N+]([O-])c1cc(C(F)(F)F)ccc1Cl ?
Response: class 0

Request: What outcome does the record of this test show for O=C(O)c1cn(C2CC2)c2cc(N3CCNCC3)c(F)cc2c1=O ?
Response: class 0

Request: Please indicate how the test categorized CC[Si](OC(C)=O)(OC(C)=O)OC(C)=O .
Response: class 0

Request: # fetch the recorded call for CCn1c2ccccc2c2cc(N)ccc21 here
Response: class 0

Request: Write down the call the test reported for this compound. Item: CC(=O)[C@H]1CC[C@H]2[C@@H]3CC=C4C[C@@H](O)CC[C@]4(C)[C@H]3CC[C@]12C
Response: class 0

Request: Please indicate how the test categorized COc1cc(C=O)ccc1OC(=O)C(C)C .
Response: class 0

Request: Entry O=C1CCCCCCCCCCCCCCO1 : call = ?
Response: class 0

Request: Write down the call the test reported for this compound. Item: CC1COc2ccccc2N1C(=O)C(Cl)Cl (centres undefined)
Response: class 1

Request: For CNC[C@H](O)c1cccc(O)c1 , which call appears in the assay record?
Response: class 0

Request: How did this test come out for OC[C@H]1O[C@H](O[C@]2(CCl)O[C@H](CCl)[C@@H](O)[C@@H]2O)[C@H](O)[C@@H](O)[C@H]1Cl ?
Response: class 0

The reported measurements were obtained from PubChem BioAssay (EPA / NIEHS).
